Where do these numbers come from? They come from ChEMBL document CHEMBL2331361.

Test system: Staphylococcus aureus
Assay: Antimicrobial activity against methicillin- and quinolone-resistant Staphylococcus aureus ARC517
Type: functional
In plain terms, low MIC, meaning strictly below 4 µg/mL, gives criterion met, and everything else gives criterion not met.

Q. Quick check: MIC of Cc1cn([C@H]2CCCN(S(=O)(=O)c3ccc(O)c(Oc4cccc(F)c4)c3)C2)c(=O)[nH]c1=O under 4 µg/mL?
A. criterion not met

Q. Quick check: MIC of Cc1cn([C@H]2CCCN(S(=O)(=O)c3ccc(C(N)=O)c(Oc4cccc(Cl)c4)c3)C2)c(=O)[nH]c1=O under 4 µg/mL?
A. criterion not met

Q. Quick check: MIC of Cc1cc(Oc2cc(S(=O)(=O)N3CCC[C@H](n4cc(C)c(=O)[nH]c4=O)C3)ccc2O)ccc1Cl under 4 µg/mL?
A. criterion met

Q. Quick check: MIC of Cc1cn([C@H]2CCCN(S(=O)(=O)c3ccc(O)c(Oc4cc(F)cc(Cl)c4)c3)C2)c(=O)[nH]c1=O under 4 µg/mL?
A. criterion met

Q. Quick check: MIC of Cc1cn([C@H]2CCCN(S(=O)(=O)c3ccc(O)c(Oc4cccc(C(F)(F)F)c4)c3)C2)c(=O)[nH]c1=O under 4 µg/mL?
A. criterion met

Q. Quick check: MIC of Cc1cn([C@H]2CCCN(S(=O)(=O)c3ccc(C(=O)O)c(Oc4cccc(Cl)c4)c3)C2)c(=O)[nH]c1=O under 4 µg/mL?
A. criterion not met

Q. Quick check: MIC of Cc1cn([C@H]2CCCN(S(=O)(=O)c3ccc(C(=O)O)c(Oc4ccc(Cl)c(Cl)c4)c3)C2)c(=O)[nH]c1=O under 4 µg/mL?
A. criterion not met

----------
Assay: Equilibrium solubility of the compound at pH 7.4
Format: physicochemical
Settings: buffer
endpoint: solubility thermodynamic (µM)
# unit: µM | format: bare number

Q. Indicate its recorded solubility thermodynamic; the compound in question is Cc1cn([C@H]2CCCN(S(=O)(=O)c3ccc(O)c(Oc4cccc(Cl)c4)c3)C2)c(=O)[nH]c1=O
A. 193

----------
For each entry below, report its IC50 value.
Test: Inhibition of Streptococcus pneumoniae thymidylate kinase
# unit: µM | format: bare number

Q. Indicate its recorded IC50; the compound in question is COc1ccc(S(=O)(=O)N2CCC[C@H](n3cc(C)c(=O)[nH]c3=O)C2)cc1Oc1cccc(Cl)c1
A. 0.006

Q. Indicate its recorded IC50; the compound in question is Cc1cn([C@H]2CCCN(S(=O)(=O)c3ccc(C(N)=O)c(Oc4cccc(Cl)c4)c3)C2)c(=O)[nH]c1=O
A. 0.01

Q. Indicate its recorded IC50; the compound in question is Cc1cn([C@H]2CCCN(S(=O)(=O)c3cccc(Oc4ccccc4)c3)C2)c(=O)[nH]c1=O
A. 20.9

Q. Indicate its recorded IC50; the compound in question is Cc1cccc(Oc2cc(S(=O)(=O)N3CCC[C@H](n4cc(C)c(=O)[nH]c4=O)C3)ccc2C(=O)O)c1
A. 0.006

Q. Indicate its recorded IC50; the compound in question is Cc1cc(Oc2cc(S(=O)(=O)N3CCC[C@H](n4cc(C)c(=O)[nH]c4=O)C3)ccc2O)ccc1Cl
A. 0.018
